# Tested on: Mycoplasma hyopneumoniae S5972
# assay_method_text: MIC, broth-dilution microtiter test (Table X)
# Type: cell-based
# setup_conditions: Mesomycoplasma hyopneumoniae, read-out: MIC
Mark MET only when MIC stays strictly below 2 µg/mL. Values equal to the cut-off are NOT MET.

Some solved entries appear below for comparison.
{"compound": "CCC1OC(=O)CC(O)C(C)C(OC2OC(C)C(O)C(N(C)C)C2O)C(CCN2CCC(Cc3ccccc3)CC2)CC(C)C(=O)C=CC(C)=CC1COC1OC(C)C(O)C(OC)C1OC (stereo not drawn) [Compound D27]", "label_value": "MET"}
{"compound": "CCC1OC(=O)CC(O)C(C)C(OC2OC(C)C(O)C(N(C)C)C2O)C(CCN2CC3CCC(CC3)C2)CC(C)C(=O)C=CC(C)=CC1COC1OC(C)C(O)C(OC)C1OC (stereo not drawn) [Compound D14]", "label_value": "MET"}
{"compound": "CCC1OC(=O)CC(O)C(C)C(OC2OC(C)C(O)C(N(C)C)C2O)C(CCN2CCCC(C(=O)N(CC)CC)C2)CC(C)C(=O)C=CC(C)=CC1COC1OC(C)C(O)C(OC)C1OC (stereo not drawn) [Compound D15]", "label_value": "NOT MET"}
{"compound": "CCC1OC(=O)CC(O)C(C)C(OC2OC(C)C(O)C(N(C)C)C2O)C(CCN2CCCCCCCCCCCC2)CC(C)C(=O)C=CC(C)=CC1COC1OC(C)C(O)C(OC)C1OC (stereo not drawn) [Compound D10]", "label_value": "MET"}
{"compound": "CCC1OC(=O)CC(O)C(C)C(OC2OC(C)C(O)C(N(C)C)C2O)C(CCN2CCC(N3CCCCC3)CC2)CC(C)C(=O)C=CC(C)=CC1COC1OC(C)C(O)C(OC)C1OC (stereo not drawn) [Compound D13]", "label_value": "NOT MET"}
{"compound": "CCC1OC(=O)CC(O)C(C)C(OC2OC(C)C(O)C(N(C)C)C2O)C(CCN2CCCc3ccccc32)CC(C)C(=O)C=CC(C)=CC1COC1OC(C)C(O)C(OC)C1OC (stereo not drawn) [Compound D11]", "label_value": "MET"}

[Q] API: query returns whether the compound falls strictly under 2 µg/mL in MIC. Query: CCC1OC(=O)CC(O)C(C)C(OC2OC(C)C(O)C(N(C)C)C2O)C(CCN2C(C)CCCC2C)CC(C)C(=O)C=CC(C)=CC1COC1OC(C)C(O)C(OC)C1OC (stereo not drawn) [Compound D41]
[A] NOT MET

[Q] is_below(MIC, 2 µg/mL) for CCC1OC(=O)CC(O)C(C)C(OC2OC(C)C(OC3CC(C)(O)C(O)C(C)O3)C(N(C)C)C2O)C(CCN2CCCCCC2)CC(C)C(=O)C=CC(C)=CC1COC1OC(C)C(O)C(O)C1OC (stereo not drawn) [Compound M3] ?
[A] NOT MET

[Q] Lab note: MIC threshold 2 µg/mL. Does this compound come in strictly under it? CCC1OC(=O)CC(O)C(C)C(OC2OC(C)C(OC3CC(C)(O)C(O)C(C)O3)C(N(C)C)C2O)C(CCN2CCCCCCC2)CC(C)C(=O)C=CC(C)=CC1COC1OC(C)C(O)C(O)C1OC (stereo not drawn) [Compound M4]
[A] NOT MET

[Q] Quick check: MIC of CCC1OC(=O)CC(O)C(C)C(OC2OC(C)C(O)C(N(C)C)C2O)C(CCN2CCC3(CC2)OCCO3)CC(C)C(=O)C=CC(C)=CC1COC1OC(C)C(O)C(OC)C1OC (stereo not drawn) [Compound D28] under 2 µg/mL?
[A] MET

[Q] Does the reported MIC of the following compound sit strictly below 2 µg/mL? CCC1OC(=O)CC(O)C(C)C(OC2OC(C)C(O)C(N(C)C)C2O)C(CCN2CC3CCC(C3)C2)CC(C)C(=O)C=CC(C)=CC1COC1OC(C)C(O)C(OC)C1OC (stereo not drawn) [Compound D46]
[A] NOT MET

[Q] Record CCC1OC(=O)CC(O)C(C)C(OC2OC(C)C(O)C(N(C)C)C2O)C(CCN2CC=CCC2)CC(C)C(=O)C=CC(C)=CC1COC1OC(C)C(O)C(OC)C1OC (stereo not drawn) [Compound D22] : is its MIC strictly below 2 µg/mL?
[A] MET

[Q] Lab log: compare recorded MIC with 2 µg/mL; is it strictly lower for CCC1OC(=O)CC(O)C(C)C(OC2OC(C)C(O)C(N(C)C)C2O)C(CCN2CCc3ccccc3C2)CC(C)C(=O)C=CC(C)=CC1COC1OC(C)C(O)C(OC)C1OC (stereo not drawn) [Compound D12] ?
[A] NOT MET

[Q] Does the reported MIC of CCC1OC(=O)CC(O)C(C)C(OC2OC(C)C(O)C(N(C)C)C2O)C(CCN2CCC3CCCCC32)CC(C)C(=O)C=CC(C)=CC1COC1OC(C)C(O)C(OC)C1OC (stereo not drawn) [Compound D44] stay below 2 µg/mL?
[A] MET

[Q] State whether 2 µg/mL exceeds MIC recorded for CCC1OC(=O)CC(O)C(C)C(OC2OC(C)C(O)C(N(C)C)C2O)C(CCN2CCCC2)CC(C)C(=O)C=CC(C)=CC1COC1OC(C)C(O)C(OC)C1OC (stereo not drawn) [Compound D1, 20-DH-DO-20-(pyrrolidin-1-yl)desmycosin] .
[A] NOT MET

[Q] Does the reported MIC of the following compound sit strictly below 2 µg/mL? CCC1OC(=O)CC(O)C(C)C(OC2OC(C)C(O)C(N(C)C)C2O)C(CCN2CCCCCC2)CC(C)C(=O)C=CC(C)=CC1COC1OC(C)C(O)C(O)C1OC (stereo not drawn) [Compound L4]
[A] MET

[Q] is_below(MIC, 2 µg/mL) for CCC1OC(=O)CC(O)C(C)C(OC2OC(C)C(OC3CC(C)(O)C(O)C(C)O3)C(N(C)C)C2O)C(CCN2CCCCCCC2)CC(C)C(=O)C=CC(C)=CC1COC1OC(C)C(O)C(OC)C1OC (stereo not drawn) [Compound T6] ?
[A] NOT MET

[Q] Please indicate whether the reported MIC of CCC1OC(=O)CC(O)C(C)C(OC2OC(C)C(O)C(N(C)C)C2O)C(CCN2CCC(O)CC2)CC(C)C(=O)C=CC(C)=CC1COC1OC(C)C(O)C(OC)C1OC (stereo not drawn) [Compound D3] is strictly below 2 µg/mL.
[A] NOT MET

[Q] Hello, is MIC of the following compound strictly smaller than 2 µg/mL? CCC1OC(=O)CC(O)C(C)C(OC2OC(C)C(O)C(N(C)C)C2O)C(CCN2CCCC23CCCCC3)CC(C)C(=O)C=CC(C)=CC1COC1OC(C)C(O)C(OC)C1OC (stereo not drawn) [Compound D19]
[A] NOT MET

[Q] Quick check: does CCC1OC(=O)CC(O)C(C)C(OC2OC(C)CC(N(C)C)C2O)C(CCN2CCCCCC2)CC(C)C(=O)C=CC(C)=CC1COC1OC(C)C(O)C(OC)C1OC (stereo not drawn) [Compound D5a] have MIC under 2 µg/mL?
[A] MET

[Q] Quick check: MIC of CCC1OC(=O)CC(O)C(C)C(OC2OC(C)C(O)C(N(C)C)C2O)C(CCN2CCC3CCCCC3C2)CC(C)C(=O)C=CC(C)=CC1COC1OC(C)C(O)C(OC)C1OC (stereo not drawn) [Compound D29] under 2 µg/mL?
[A] MET

###

Answer each item with its documented MIC.
# Test system: Staphylococcus epidermidis 222
# assay_method_text: MIC, standard agar-dilution assay (Table IX)
# Type: cell-based
# setup_conditions: read-out: MIC
Give bare numbers, in µg/mL.

Worked examples follow.
{"compound": "CCC1OC(=O)CC(O)C(C)C(OC2OC(C)C(OC3CC(C)(O)C(O)C(C)O3)C(N(C)C)C2O)C(CCN2CCCCCCC2)CC(C)C(=O)C=CC(C)=CC1COC1OC(C)C(O)C(O)C1OC (stereo not shown)", "MIC / µg/mL": 2}
{"compound": "CCC1OC(=O)CC(O)C(C)C(OC2OC(C)C(OC3CC(C)(O)C(O)C(C)O3)C(N(C)C)C2O)C(CCN2CCCCCCC2)CC(C)C(=O)C=CC(C)=CC1COC1OC(C)C(O)C(OC)C1OC (stereo not shown)", "MIC / µg/mL": 2}
{"compound": "CCC1OC(=O)CC(O)C(C)C(OC2OC(C)C(O)C(N(C)C)C2O)C(CCN2CCCC(C(=O)N(CC)CC)C2)CC(C)C(=O)C=CC(C)=CC1COC1OC(C)C(O)C(OC)C1OC (stereo not shown)", "MIC / µg/mL": 1}

Now take the following compound into account.
[Q] Provide MIC value for the following compound: CCC1OC(=O)CC(O)C(C)C(OC2OC(C)C(O)C(N(C)C)C2O)C(CCN2CCCCC2)CC(C)C(=O)C=CC(C)=CC1COC1OC(C)C(O)C(OC)C1OC (stereo not shown) [Compound D2, 20-DH-DO-20-(piperidin-1-yl)desmycosin]
[A] 0.5
